# Test system: Staphylococcus aureus MW2 delta-mecA (mecA-)
# ASSAY_DETAILS: IC50 (growth, competition assay)
# EXPERIMENTAL_PARAMETERS: fluorescent label: DsRed; cefoxitin: subinhibitory
Where a name gives a salt, the structure may show the parent alone.
For each entry below, report its IC50 value.

Entry under review: C[C@H]1c2cccc(O)c2C(=O)C2=C(O)[C@]3(O)C(=O)C(C(N)=O)=C(O)[C@@H](N(C)C)[C@@H]3[C@@H](O)[C@@H]21 [Doxycycline HCl] . Reported IC50? < 9.85 µM

IC50 lookup needed for CO[C@@]1(NC(=O)C2SC(=C(C(N)=O)C(=O)O)S2)C(=O)N2C(C(=O)O)=C(CSc3nnnn3C)CS[C@@H]21 (stereo partly drawn) , thanks. < 9.85 µM

Report IC50 for C[N+](C)(C)CC(O)CC(=O)[O-] (racemic) [DL-Carnitine hydrochloride] please. > 150 µM
